# TARGET OF ASSAY: human V1a receptor (Homo sapiens, UniProt P37288)
# Sequence (P37288 whole entry): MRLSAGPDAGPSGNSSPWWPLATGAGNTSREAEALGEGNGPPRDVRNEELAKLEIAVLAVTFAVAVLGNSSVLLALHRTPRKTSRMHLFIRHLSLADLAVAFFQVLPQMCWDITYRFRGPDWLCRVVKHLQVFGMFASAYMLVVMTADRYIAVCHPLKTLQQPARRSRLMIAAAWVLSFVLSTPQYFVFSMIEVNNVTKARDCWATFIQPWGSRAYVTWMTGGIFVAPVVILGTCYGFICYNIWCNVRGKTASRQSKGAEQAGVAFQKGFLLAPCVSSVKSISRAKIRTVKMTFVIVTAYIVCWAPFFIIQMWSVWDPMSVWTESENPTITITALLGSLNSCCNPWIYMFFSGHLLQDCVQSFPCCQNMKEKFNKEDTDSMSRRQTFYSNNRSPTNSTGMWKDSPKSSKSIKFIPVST
# TEST METHOD NOTES: Cellular in vitro assay for determining vasopressin receptor activity, V1a receptor cell line (CHO, aequorin luminescence)
# CONDITION DETAILS: CHO cell line transfected with human V1a receptor; [Arg]-vasopressin at EC50 concentration; read-out: IC50 hV1a
pIC50: −log10 of the molar value.
TEST READOUT: pIC50

I = O=C(NCCC(F)(F)F)c1cccnc1-n1nc(Cn2nc(-c3ccc(Cl)cc3)n(C[C@H](O)C(F)(F)F)c2=O)nc1C(=O)N1CCS(=O)(=O)CC1
II = O=C(NC1CC1(F)F)c1cccnc1-n1cnc(Cn2nc(-c3ccc(Cl)cc3)n(C[C@H](O)C(F)(F)F)c2=O)n1 (stereo partly drawn)
### Prompt Given the listed items, does I or II have the lesser reported pIC50? Lab log: write the label of the selected item as the result.
### Response I

---

# TARGET OF ASSAY: human V2 receptor (Homo sapiens)
# Construct: expressed in transfected cells; host or cells: CHO K1 (ATCC) expressing firefly luciferase under a CRE-responsive promoter
# Sequence (P30518 whole entry): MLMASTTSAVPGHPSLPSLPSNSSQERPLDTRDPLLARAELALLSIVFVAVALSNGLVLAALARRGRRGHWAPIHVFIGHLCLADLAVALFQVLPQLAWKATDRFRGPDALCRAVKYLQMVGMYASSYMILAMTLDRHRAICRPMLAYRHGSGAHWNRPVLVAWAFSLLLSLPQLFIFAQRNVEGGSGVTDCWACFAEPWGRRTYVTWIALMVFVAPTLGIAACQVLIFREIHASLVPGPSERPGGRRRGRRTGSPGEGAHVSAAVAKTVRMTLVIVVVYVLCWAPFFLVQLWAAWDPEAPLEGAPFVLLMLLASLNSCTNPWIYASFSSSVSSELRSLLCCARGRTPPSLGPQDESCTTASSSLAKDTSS
# TEST METHOD NOTES: Cellular in vitro assay for determining vasopressin receptor activity, V2 receptor cell line (CHO, CRE-luciferase)
# Format: cell-based
# CONDITION DETAILS: CHO cell line transfected with human V2 receptor; [Arg8]-vasopressin at EC50 concentration, 3 hours; read-out: IC50 hV2
TEST READOUT: IC50 (nM)

Guide cases for IC50, answers given:
| COMPOUND | REPORTED |
| --- | --- |
| Cc1[nH]ncc1C(=O)Nc1ncccc1-n1cnc(Cn2nc(-c3ccc(Cl)cc3)n(C[C@H](O)C(F)(F)F)c2=O)n1 | 4500 |
| CC1CCCN1C(=O)c1ccccc1-n1cnc(Cn2nc(-c3ccc(Cl)cc3)n(C[C@H](O)C(F)(F)F)c2=O)n1 (mixture of isomers) | 635 |

1 = O=c1n(Cc2ncn(-c3cnccc3N3CCOCC3)n2)nc(-c2ccc(Cl)cc2)n1C[C@H](O)C(F)(F)F
2 = O=C(c1ccccc1-n1cnc(Cn2nc(-c3ccc(Cl)cc3)n(C[C@H](O)C(F)(F)F)c2=O)n1)N1CCCO1
### Prompt Exercise: compare 1 and 2 ; which one has the greater IC50? Answer with the label corresponding to your selection.
### Response 1
(1: 785 nM, 2: 440 nM)

---

# TARGET OF ASSAY: human V2 receptor (Homo sapiens)
# Construct: expressed in transfected cells; host or cells: CHO K1 (ATCC) expressing firefly luciferase under a CRE-responsive promoter
# TEST METHOD NOTES: Cellular in vitro assay for determining vasopressin receptor activity, V2 receptor cell line (CHO, CRE-luciferase)
# Format: cell-based
# CONDITION DETAILS: CHO cell line transfected with human V2 receptor; [Arg8]-vasopressin at EC50 concentration, 3 hours; read-out: IC50 hV2
pIC50: −log10 of the molar value.
TEST READOUT: pIC50

Example cases with answers are listed next.
| MOLECULE | REPORTED |
| --- | --- |
| O=C(NCc1cc(F)cc(F)c1)c1ccccc1-n1cnc(Cn2nc(-c3ccc(Cl)cc3)n(C[C@H](O)C(F)(F)F)c2=O)n1 [Example 243] | 6.27 |
| CC1=C(C)CN(C(=O)c2ccccc2-n2cnc(Cn3nc(-c4ccc(Cl)cc4)n(C[C@H](O)C(F)(F)F)c3=O)n2)CC1 [Example 260] | 6.12 |
| O=C(Nc1ccccc1F)c1ccccc1-n1cnc(Cn2nc(-c3ccc(Cl)cc3)n(C[C@H](O)C(F)(F)F)c2=O)n1 [Example 305] | 7.27 |
| O=C(Nc1ccncc1-n1cnc(Cn2nc(-c3ccc(Cl)cc3)n(C[C@H](O)C(F)(F)F)c2=O)n1)C1(C(F)(F)F)CC1 [Example 32] | 6.12 |
| O=C(c1ccccc1-n1cnc(Cn2nc(-c3ccc(Cl)cc3)n(C[C@H](O)C(F)(F)F)c2=O)n1)N1CC[C@@H](O)C1 [Example 291] | 5.94 |

I = O=C(c1ccccc1-n1cnc(Cn2nc(-c3ccc(Cl)cc3)n(C[C@H](O)C(F)(F)F)c2=O)n1)N1CCCC1 [Example 348]
II = CC1(CNC(=O)c2ccccc2-n2cnc(Cn3nc(-c4ccc(Cl)cc4)n(C[C@H](O)C(F)(F)F)c3=O)n2)CCCO1 (mixture of isomers) [Example 202]
III = CC(=O)N[C@H]1CCN(C(=O)c2ccccc2-n2cnc(Cn3nc(-c4ccc(Cl)cc4)n(C[C@H](O)C(F)(F)F)c3=O)n2)C1 [Example 180]
IV = O=C1CC[C@@H](CNC(=O)c2ccccc2-n2cnc(Cn3nc(-c4ccc(Cl)cc4)n(C[C@H](O)C(F)(F)F)c3=O)n2)N1 [Example 178]
V = N#CCNC(=O)c1ccccc1-n1cnc(Cn2nc(-c3ccc(Cl)cc3)n(C[C@H](O)C(F)(F)F)c2=O)n1 [Example 252]
### Prompt Could you please order the items by pIC50, going from the lowest number to the highest? As an answer, provide the labels arranged in the order called for.
### Response III, IV, I, V, II
(III: 5.53, IV: 5.74, I: 6.01, V: 6.59, II: 8.39)

Cited source for all entries: patent US11173151B2
